assay: small-molecule microarray binders of probe aDKK1, primary screen, biochemical, biotinylated probe, 635/667 nm fluorescence (AID 1099); conditions: higher = more signal;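 also: score merges 667nm spot fluorescence with signal to noise across triplicate slides; reference of the scale not given here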
Please respond with reported composite z-score for every item in the list.
One number for each entry.

Example compounds with recorded composite z-score:
Compound: NC(=O)NCC#Cc1ccc2c(c1)[C@]1(C(=O)N2)[C@H](C(=O)O)[C@H]2C(=O)O[C@H](c3ccccc3)[C@H](c3ccccc3)N2[C@@H]1c1ccccc1OCCO
Value observed: 0.689
--
Compound: CC(C)CCC[C@@H](C)[C@H]1CC[C@@]2(C)C3=C(CC[C@]12C)[C@@]1(C)CC[C@H](OC(=O)c2ccc(Br)cc2)C(C)(C)C1CC3 (some centres not stated)
Value observed: -0.153
--
Compound: CCCc1cccc(=O)o1
Value observed: -0.161
--
Compound: COc1ccc(CCNC(=O)[C@@]2(Sc3ccc(C)cc3)CC(=O)N(Cc3cc(C(F)(F)F)cc(C(F)(F)F)c3)[C@@H]2c2ccc(CO)cc2I)cc1
Value observed: 0.277
--
Compound: CO[C@H]1O[C@H](CO)[C@@H](OC(=O)c2ccc(Br)cc2)[C@@H]2OC(=O)[C@@H](Cc3ccc4ccccc4c3)C/C=C/C[C@H](Cc3ccc4ccccc4c3)C(=O)O[C@@H]12
Value observed: 0.463

Respectfully, I request composite z-score for each entry included below.
1. COC(=O)[C@H](Cc1ccccc1)N1CC(/C=C/C2CC2)=C[C@@H]1[C@@H](O)Cc1ccccc1
2. COCCOC(=O)N1C(=O)[C@@]2(c3ccccc31)[C@H](c1ccc(OCCO)cc1)N1[C@H](c3ccccc3)[C@H](c3ccccc3)OC(=O)[C@H]1[C@@H]2C(=O)Nc1nc2ccccc2s1

Solution:
[0.0175, -0.223]

====

system: PRMT1 (protein arginine N-methyltransferase 1); test: PRMT1 binders on small-molecule microarrays, primary screen, biochemical, small-molecule microarray, 635 nm fluorescence (AID 1088); details: small-molecule microarray binding, higher = more signal;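 also: binding of Prmt1 protein to compounds spotted on small-molecule microarray slides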
Please respond with reported composite z-score for every item in the list.
Give bare numbers.

Respectfully, I request composite z-score for each entry included below.
1. CCOC(=O)C[C@H]1[C@H](OC(=O)c2ccccc2-c2ccccc2)[C@@H](NC(=O)CC(C)C)c2cc(OCCCO)ccc2N1C(=O)c1ccc2ccccc2n1
2. CC(=O)N1Cc2ccccc2C[C@]2(N=C(c3ccc(OCCCO)cc3)O[C@@H]2c2ccccc2)C1=O
3. CC=CC(O)C1C=CC2C(=O)N(c3ccccc3)C(=O)C2N1Nc1ccccc1 (stereo unspecified)
4. CCOC(=O)[C@H]1C/C=C/C[C@H](C(=O)OCC)C(=O)O[C@H]2[C@@H](OC)O[C@H](CO)[C@@H](OC(=O)CCc3ccccc3)[C@@H]2OC1=O
5. CCCc1cccc(=O)o1
6. NC(=O)N1C(=O)C2C(C1=O)C1C=C(c3ccc(CO)cc3)C2C(C2CC2)N1Cc1sc2ccccc2c1Cl (stereo unspecified)
7. CCCCN1CC=CC23O[C@@H]4C=CCOC(=O)[C@@H]4[C@H]2C(=O)N(C(C)CO)[C@@H]3C1=O (stereo partly specified)

Solution:
[0.0508, 1.55, 1.55, 0.182, 0.804, 1.54, -1.57]

Respectfully, I request composite z-score for each entry included below.
1. C=CCC(OC(C)=O)[C@@H]1[C@@H](N(Cc2ccc(-c3ccccc3)cc2)C(=O)c2cccc3ccccc23)c2cc(OCCCO)ccc2N1C(=O)Cc1ccc2ccccc2c1 (stereo partly specified)
2. CCOc1cc(C(O)C2C=CC3C(=O)N(C)C(=O)C3N2N2CCCCC2)ccc1O (stereo unspecified)
3. COc1c(C)cc(-c2cc3c(c(Cc4ccccc4)n2)[Si](C(C)C)(C(C)C)OC3)cc1C
4. O=C(O)[C@]1(Cc2ccccc2)N=C(c2ccc(OCCCO)cc2)O[C@@H]1c1ccccc1

Solution:
-0.419
0.163
-0.13
-1.27

Respectfully, I request composite z-score for each entry included below.
1. Cc1ccc(S[C@]2(C(=O)O)CC(=O)N(Cc3ccccc3Cl)[C@@H]2c2ccc(CO)cc2)cc1
2. CC(C)(C)OC(=O)CC[C@]1(C(=O)NCCN2CCOCC2)N=C(c2ccc(OCCCO)cc2)O[C@H]1c1ccccc1
3. [N-]=[N+]=NCc1ccccc1[C@H]1OC(c2ccc(OCCCO)cc2)=N[C@@]1(CCS(=O)(=O)c1ccccc1)C(N)=O
4. CN1C(=O)[C@@]2(CCS(=O)(=O)c3ccccc3)N=C(c3ccc(OCCCO)cc3)O[C@H]2c2ccccc21
5. COC(=O)Cn1c(C(=O)N2CCCC2)cc2c1C[C@H]1CN(C(=O)c3ccccc3)[C@@](Cc3ccc(F)cc3)(C(=O)OC)[C@@H]21
6. CCOC(=O)C1=CC[C@@H](c2ccc([N+](=O)[O-])cc2)N(S(=O)(=O)c2ccc(C)cc2)[C@H]1c1ccccc1

Solution:
1: -0.164; 2: 1.55; 3: 1.47; 4: 1.53; 5: -0.533; 6: 1.54
